// data source = PubChem BioAssay (NCI)

Test system: SF-268 CNS
Test: NCI-60 one-dose screen, 48 h (100 = growth as untreated, 0 = no growth, -100 = all killed)
Details: 10 µM unless noted
About 83,000 compounds went through this panel and 20% of them were active in at least one assay; those are over-represented in the sample as a whole. Active and inactive are the calls of the source. The calls were made as follows: active = growth percent below 10; inactive = the rest.
Reported values of growth for individual entries

Please review the entries below; each comes with its answer.
>>> measured("C=Cc1cnc(Nc2ccc(OC)cc2)nc1NCCCNC(=O)C1CCC1")
"28.5% (inactive)"
>>> measured("O=c1c2c3c(sc2n2c(-c4cc(-c5ccccc5)no4)nnc2n1Cc1ccccc1)CCCC3")
"93.5% (inactive)"
>>> measured("CCN(CC)Cc1cc(Nc2ccnc3cc(Cl)ccc23)ccc1O")
"77.8% (inactive)"

Returns the measured growth for the input compound. Input: `COc1ccc(C(=S)N2CCN(c3ccc(Cl)cc3)CC2)cc1` 100% (inactive)

---

System: CAKI-1 renal
Experiment: NCI-60 one-dose screen, 48 h
Conditions: 10 µM unless noted
Compounds without any hit were thinned out: in the full panel of roughly 83,000, 20% have a hit. Activity calls are given as the source filed them. Rule for the calls: active = growth percent below 10; inactive = the rest.
Outcome (select one): active, inactive

# count of solved cases: 5
>>> class_label("CCOC(=O)c1c(C)c2c(n1Cc1ccccc1)CSCC2=O")
"active"
>>> class_label("Cc1c(CN)cc(-c2ccc(Cl)cc2)n1-c1ccccc1")
"inactive"
>>> class_label("COc1ccc(/C=C/C(=O)c2ccc(NC(=O)CSc3nc4c([nH]3)c(=O)n(C)c(=O)n4C)cc2)cc1OC")
"inactive"
>>> class_label("C=CCn1c(SCC(=O)Nc2ccc(/C(C)=N/O)cc2)nnc1-c1cc(-c2ccc(S(N)(=O)=O)cc2)nc2ccccc12")
"inactive"
>>> class_label("C=C(C)[C@@H]1CCC[C@]2(C(=O)O)CC[C@]3(C)[C@@H](CC[C@@H]4[C@@]5(C)C/C(=C/c6ccncc6)C(=O)C(C)(C)[C@@H]5CC[C@]43C)[C@@H]12")
"inactive"

For this compound, state the assay outcome: N=c1c(S(=O)(=O)c2ccccc2)cc2c(=O)n3ccccc3nc2n1CC1CCCO1 (stereo unspecified) inactive

---

Tested on: KM12 colon
Assay: NCI-60 one-dose screen, 48 h (100 = growth as untreated, 0 = no growth, -100 = all killed)
Details: 10 µM unless noted
This is part of a sample that, as a whole, favours compounds with a hit. Of some 83,000 tested, about 20% had one in any assay.
Quantity Kind: growth (%)
Just the number in %, nothing appended.

Please review the entries below; each comes with its answer.
>>> measured("Cc1ccnc(Nc2ccc([N+](=O)[O-])c(NCCN3CCOCC3)n2)c1")
5.83
>>> measured("O=C1NC(=O)/C(=C/c2c(-c3ccccc3)nc3sc(COc4ccccc4)nn23)S1")
100
>>> measured("CSc1nn2c(-c3ccc4ccccc4c3)ccnc2c1C#N")
5.75
>>> measured("C=C1C(=O)O[C@H]2[C@H]1CC/C(COC(=O)/C=C\\C(=O)NCc1ccc(Cn3c(=O)sn(CCCl)c3=O)cc1)=C\\CC[C@@]1(C)O[C@@H]21")
97.1
>>> measured("N#C/C(=C\\C=C\\c1ccc(-c2cc(Cl)ccc2Cl)o1)c1nc2ccccc2s1")
106
>>> measured("Cc1ccccc1Nc1cc(O)c2c(=O)cc(-c3ccccc3)oc2c1")
36.4
>>> measured("Cc1ccc(S(=O)(=O)Oc2ccc3sc4cccc(NCCN(C)C)c4c(=O)c3c2)cc1")
-85
>>> measured("CN(C)CCCNC(=O)c1cncnc1Nc1ccc(OCc2cccc(F)c2)c(Cl)c1")
-32.1

Returns the measured growth for the input compound. Input: `CNCc1cccc2c1OCCOCCOCCNS(=O)(=O)c1ccc(cc1)-c1cnc(N)c(n1)C(=O)N2` 20.2
